Source listed as ChEMBL document CHEMBL1255430.

- assay-notes: Lipophilicity, log P of the compound
- Format: physicochemical
- assay-context: octanol/water
measurement-name: logP
Could you respond with only the numeric value?

Previously resolved entries follow.
| compound-structure-string | logP |
| --- | --- |
| CC1(C)S[C@@H]2[C@H](NC(=O)[C@H](NC(=O)N3CCN(S(C)(=O)=O)C3=O)c3ccccc3)C(=O)N2[C@H]1C(=O)O | 0.67 |
| Cc1onc(-c2ccccc2Cl)c1C(=O)N[C@@H]1C(=O)N2[C@@H]1SC(C)(C)[C@@H]2C(=O)O | 2.8 |
| Cc1onc(-c2c(Cl)cccc2Cl)c1C(=O)N[C@@H]1C(=O)N2[C@@H]1SC(C)(C)[C@@H]2C(=O)O | 3.4 |
| Cc1onc(-c2ccccc2)c1C(=O)N[C@@H]1C(=O)N2[C@@H]1SC(C)(C)[C@@H]2C(=O)O | 2.1 |
| CC1(C)S[C@@H]2[C@H](NC(=O)[C@H](N)c3ccccc3)C(=O)N2[C@H]1C(=O)O | -1.03 |

Need logP of `CC1(C)S[C@@H]2[C@H](NC(=O)[C@H](NC(=O)N3CCNC3=O)c3ccccc3)C(=O)N2[C@H]1C(=O)O` , thanks.
0.71

Queued: `CCN1CCN(C(=O)N[C@@H](C(=O)N[C@@H]2C(=O)N3[C@@H]2SC(C)(C)[C@@H]3C(=O)O)c2ccccc2)C(=O)C1=O`
0.45

Queued: `CC1(C)S[C@@H]2[C@H](NC(=O)COc3ccccc3)C(=O)N2[C@H]1C(=O)O`
1.54

* * *

- Test system: Escherichia coli
- assay-context: HN1157
- Description: Binding affinity to Escherichia coli isolate HN1157 AcrAB-TolC efflux transporter
measurement-name: K0.5

| compound | target | measured-value |
| --- | --- | --- |
| CC1(C)S[C@@H]2[C@H](NC(=O)COc3ccccc3)C(=O)N2[C@H]1C(=O)O [PENICILLIN V] | Escherichia coli | 0.82 µM |
| Cc1onc(-c2ccccc2)c1C(=O)N[C@@H]1C(=O)N2[C@@H]1SC(C)(C)[C@@H]2C(=O)O [OXACILLIN] | Escherichia coli | 0.97 µM |
| CCN1CCN(C(=O)N[C@@H](C(=O)N[C@@H]2C(=O)N3[C@@H]2SC(C)(C)[C@@H]3C(=O)O)c2ccccc2)C(=O)C1=O [PIPERACILLIN] | Escherichia coli | 1.06 µM |
| CC1(C)S[C@@H]2[C@H](NC(=O)[C@H](NC(=O)N3CCN(S(C)(=O)=O)C3=O)c3ccccc3)C(=O)N2[C@H]1C(=O)O [MEZLOCILLIN] | Escherichia coli | 1.08 µM |
| Cc1onc(-c2c(Cl)cccc2Cl)c1C(=O)N[C@@H]1C(=O)N2[C@@H]1SC(C)(C)[C@@H]2C(=O)O [DICLOXACILLIN] | Escherichia coli | 0.53 µM |
| Cc1onc(-c2ccccc2Cl)c1C(=O)N[C@@H]1C(=O)N2[C@@H]1SC(C)(C)[C@@H]2C(=O)O [CLOXACILLIN] | Escherichia coli | 0.91 µM |

Would you kindly look at the next entry?
Need K0.5 of CC1(C)S[C@@H]2[C@H](NC(=O)[C@H](NC(=O)N3CCNC3=O)c3ccccc3)C(=O)N2[C@H]1C(=O)O [AZLOCILLIN] , thanks.
1.06 µM

* * *

- assay-notes: Permeability across Escherichia coli HN1157/pHSG576oxa7 assessed as permeability coefficient in presence of proton uncoupler carbonyl cyanide meta-chlorophenylhydrazone
- Format: ADME, organism-based
- assay-context: not told, read-out: permeability
measurement-name: Papp (×10⁻⁶ cm/s)
Could you give me the number in ×10⁻⁶ cm/s? Just the number is fine.

Previously resolved entries follow.
| compound-structure-string | measured-value |
| --- | --- |
| Cc1onc(-c2ccccc2Cl)c1C(=O)N[C@@H]1C(=O)N2[C@@H]1SC(C)(C)[C@@H]2C(=O)O | 60 |
| CC1(C)S[C@@H]2[C@H](NC(=O)COc3ccccc3)C(=O)N2[C@H]1C(=O)O | 70 |
| CC1(C)S[C@@H]2[C@H](NC(=O)[C@H](NC(=O)N3CCN(S(C)(=O)=O)C3=O)c3ccccc3)C(=O)N2[C@H]1C(=O)O | 50 |

Need Papp of `CC1(C)S[C@@H]2[C@H](NC(=O)[C@H](NC(=O)N3CCNC3=O)c3ccccc3)C(=O)N2[C@H]1C(=O)O` , thanks.
40

Queued: `Cc1onc(-c2c(Cl)cccc2Cl)c1C(=O)N[C@@H]1C(=O)N2[C@@H]1SC(C)(C)[C@@H]2C(=O)O`
60

Queued: `Cc1onc(-c2ccccc2)c1C(=O)N[C@@H]1C(=O)N2[C@@H]1SC(C)(C)[C@@H]2C(=O)O`
60

Queued: `CCN1CCN(C(=O)N[C@@H](C(=O)N[C@@H]2C(=O)N3[C@@H]2SC(C)(C)[C@@H]3C(=O)O)c2ccccc2)C(=O)C1=O`
30
